# Protocol summary: Embryo-fetal development study of compound 16 by oral gavage in Wistar Han rats
# Type: in vivo
# Condition parameters: female, rat, in vivo; pregnant Wistar Han rats, once daily oral gavage GD 6 to 17, definitive study; read-out: no-observed-adverse-effect level (NOAEL) for maternal toxicity and embryofetal development
Endpoint name: NOAEL (mg/kg/day)

CC(C)C(=O)OC[C@H]1O[C@@](C#N)(c2ccc3c(N)ncnn23)[C@H](O)[C@@H]1O : 250

These measurements were taken from patent US20240009220A1.
